Provenance of the data: patent US8927500B2

target system: UniProtKB O15151
Sequence (O15151 1-125): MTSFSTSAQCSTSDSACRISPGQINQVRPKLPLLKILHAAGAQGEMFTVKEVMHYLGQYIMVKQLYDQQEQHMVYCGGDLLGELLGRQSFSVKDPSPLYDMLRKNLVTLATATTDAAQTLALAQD
assay procedure: Competitive fluorescence polarization assay for MDMX
Assay type: binding
test parameters: competitive FP assay, read-out: IC50 (MDMX)
pIC50: −log10 of the molar value.
reported endpoint: pIC50

Prompt line: Need pIC50, item CCCC[C@H](NC(=O)[C@H](C)NC(=O)[C@H](C)NC(=O)[C@]1(C)CCCC=CCCCCCC[C@@](C)(NC(=O)[C@H](Cc2ccccc2)NC(=O)[C@@H](NC(=O)[C@H](CC(C)C)NC(C)=O)[C@@H](C)O)C(=O)N[C@@H](C)C(=O)N[C@@H](Cc2ccc(O)cc2)C(=O)N[C@@H](Cc2c[nH]c3ccccc23)C(=O)N[C@@H](C)C(=O)N[C@@H](C)C(=O)N[C@@H](CC(C)C)C(=O)N1)C(=O)N[C@@H](C(N)=O)C(C)C (single isomer, unassigned)
Response line: 6.00 to 7.00
